# assay: recombinant barcode read abundance after kanamycin selection (control-corrected) (log10(CPM+1)); higher = more efficient recombination; sequences stand for … in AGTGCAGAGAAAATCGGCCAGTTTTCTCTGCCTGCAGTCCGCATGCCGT…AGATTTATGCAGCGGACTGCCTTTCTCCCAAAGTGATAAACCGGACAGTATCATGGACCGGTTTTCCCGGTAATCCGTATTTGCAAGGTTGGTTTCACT; site = the 11-nt target
// 0.0 strictly below 0.5 in recombinant barcode read abundance (log10); 1.0 otherwise

A selection of reference data follows.
TGTTTAACTTGGGTTCTAACCTGTTGCCT (site TGTTTAACTAG) = 0.0
GATTCTTCTTGGGTTCTAACCTGTTGCCT (site GCTTCTTCTAG) = 0.0
GGGCCTTCTTGGGTTCTAACCTGTTGCAT (site GGGACTTCTAT) = 0.0
GGGGCACCTTGGGTTCTAACCTGTTGCGT (site GGGGCACCTAT) = 1.0
GACACAACTTGGGTTCTAACCTGTTGCCT (site GACACAACTAG) = 0.0
CTAGGATCTTGGGTTCTAACCTGTTGCCA (site CTAGGATCTTG) = 0.0
AGCCCTCCTTGGGTTCTAACCTGTTGCTG (site AGCCCTCCTCA) = 1.0
CCTCAGGCTTGGGTTCTAACCTGTTGCCT (site CCTCAGGCTGG) = 0.0
TCTAAGTCTTGGGTTCTAACCTGTTGCCT (site TCTAAGTCTCG) = 0.0

Task item: Does the sequence CGGTACACTTGGGTTCTAACCTGTTGCGG (site CGGGACACTCC) have recorded recombinant barcode read abundance (log10) that is 0.5 or more?
Reply: 1.0

====

# assay: recombinant barcode read abundance after kanamycin selection (control-corrected) (log10(CPM+1)); higher = more efficient recombination; sequences stand for … in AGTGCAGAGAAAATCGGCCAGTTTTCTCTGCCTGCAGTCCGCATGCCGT…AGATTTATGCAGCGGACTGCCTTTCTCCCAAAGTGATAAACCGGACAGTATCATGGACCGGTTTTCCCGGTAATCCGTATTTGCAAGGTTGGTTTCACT; site = the 11-nt target
Reported recombinant barcode read abundance (log10) values for the following sequences.
Write no unit; give the number alone.

CTTCAATCTTGGGTTCTAACCTGTTGCCT (site CTTAAATCTAG) = 0.146

Task item: What measured recombinant barcode read abundance (log10) goes with TTACGTGCTTGGGTTCTAACCTGTTGCGG (site TTACGTGCTCC) ?
Reply: 2.4

Task item: Given the sequence TAGTGTGCTTGGGTTCTAACCTGTTGCCT (site TAGTGTCCTAG) , what is its reported recombinant barcode read abundance (log10)?
Reply: 0.137

Task item: Fill in the blank: the reported recombinant barcode read abundance (log10) of TCGTCACCTTGGGTTCTAACCTGTTGCCT (site CCGTCACCTAG) is ____.
Reply: 0.332

Task item: Quick one: recombinant barcode read abundance (log10) for CTCGGATCTTGGGTTCTAACCTGTTGCTT (site CTCGGATCTGA) ?
Reply: 0.0569

Task item: For the sequence shown here, TATAAGTCTTGGGTTCTAACCTGTTGCCT (site TATAAGTCTAG) , give the reported recombinant barcode read abundance (log10).
Reply: 0.0571

Task item: Item under review: AATTCGACTTGGGTTCTAACCTGTTGCCT (site ACTTCGACTAG) . Reported recombinant barcode read abundance (log10)?
Reply: 0.0747

Task item: What measured recombinant barcode read abundance (log10) goes with AAGAACTCTTGGGTTCTAACCTGTTGCCG (site GTTTCAACTAC) ?
Reply: 0.0172

Task item: Entry TAGCGGACTTGGGTTCTAACCTGTTGCCT (site TAGCCGACTAG) : reported recombinant barcode read abundance (log10) = ?
Reply: 0

Task item: Any idea what its recombinant barcode read abundance (log10) is? The sequence is GGTCCATCTTGGGTTCTAACCTGTTGCCT (site GCTCCATCTAG)
Reply: 0.0427

Task item: Entry TCACCACCTTGGGTTCTAACCTGTTGCCT (site TCACCACCTAG) has what recombinant barcode read abundance (log10)?
Reply: 0.744

Task item: Can you look up the measured recombinant barcode read abundance (log10) of ATGGGCCCTTGGGTTCTAACCTGTTGCTC (site ATGGGCCCTTA) for me?
Reply: 0.0312

Task item: Bench note: what recombinant barcode read abundance (log10) did CGATCGCCTTGGGTTCTAACCTGTTGCCT (site GGACCGCCTAG) show?
Reply: 0.0952

Task item: I am curious: what recombinant barcode read abundance (log10) value has been reported for AGCAGAGCTTGGGTTCTAACCTGTTGCCG (site AGCAGAGCTCC) ?
Reply: 0.058

====

# assay: recombinant UMI read abundance after kanamycin selection (control-corrected) (log10(CPM+1)); higher = more efficient recombination; extreme values may be limits of the assay; sequences stand for … in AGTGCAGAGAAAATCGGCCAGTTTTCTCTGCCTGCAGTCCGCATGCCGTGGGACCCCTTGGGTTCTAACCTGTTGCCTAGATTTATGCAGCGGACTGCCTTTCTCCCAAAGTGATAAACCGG…AGGTTGGTTTCACT; site = the 11-nt donor
attribute_measured: recombinant UMI read abundance (log10)
// response body must contain only the number

Task item: Name the recorded recombinant UMI read abundance (log10) for CAATCACCATGGACCGGTTTTCCCGGTAATCCGTATTTGCT (site CGATCATCTAG) .
Reply: 0

====

# assay: recombinant UMI read abundance after kanamycin selection (control-corrected) (log10(CPM+1)); higher = more efficient recombination; extreme values may be limits of the assay; sequences stand for … in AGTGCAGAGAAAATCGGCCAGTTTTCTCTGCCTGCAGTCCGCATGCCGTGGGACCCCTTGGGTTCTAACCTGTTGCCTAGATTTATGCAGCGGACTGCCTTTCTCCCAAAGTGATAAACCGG…AGGTTGGTTTCACT; site = the 11-nt donor
# recombinant UMI read abundance (log10) listing for each entry below

CCCAAGCCATGGACCGGTTTTCCCGGTAATCCGTATTTGCC (site CCCCAGCCTGG) = 0

Task item: Need recombinant UMI read abundance (log10), item ACTAGAACATGGACCGGTTTTCCCGGTAATCCGTATTTGAG (site ACTAGAACTAT)
Reply: 0

Task item: Return reported recombinant UMI read abundance (log10); argument: AATGTCTCATGGACCGGTTTTCCCGGTAATCCGTATTTGAC (site AATGTTTCTGT)
Reply: 0

Task item: What does the record list as recombinant UMI read abundance (log10) for CTCTACACATGGACCGGTTTTCCCGGTAATCCGTATTTGCG (site CTCTACACTCG) ?
Reply: 1.73

Task item: Please give the measured recombinant UMI read abundance (log10) for this sequence: ACAGTACCATGGACCGGTTTTCCCGGTAATCCGTATTTGCA (site ACAGTAGCTTG)
Reply: 0.138

Task item: Which recombinant UMI read abundance (log10) is reported for this sequence? GGCGAACCATGGACCGGTTTTCCCGGTAATCCGTATTTGAA (site GGCGAACCTTT)
Reply: 0

====

# assay: recombinant UMI read abundance after kanamycin selection (control-corrected) (log10(CPM+1)); higher = more efficient recombination; extreme values may be limits of the assay; sequences stand for … in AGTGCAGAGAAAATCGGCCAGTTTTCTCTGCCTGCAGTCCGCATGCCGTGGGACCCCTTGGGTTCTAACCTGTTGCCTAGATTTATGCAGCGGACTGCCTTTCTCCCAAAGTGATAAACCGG…AGGTTGGTTTCACT; site = the 11-nt donor
Kindly return Yes if reported recombinant UMI read abundance (log10) is no lower than 0.01; return No if it is lower.

Below, 4 sequences whose answers are already recorded.
GTGCATGCATGGACCGGTTTTCCCGGTAATCCGTATTTGGA (site GTGCATGCTAC) = No
TCTGAAACATGGACCGGTTTTCCCGGTAATCCGTATTTGTG (site TCTGAAACTCA) = No
TATTTGGCATGGACCGGTTTTCCCGGTAATCCGTATTTGTG (site CATTTGGCTCA) = Yes
CCAATATCATGGACCGGTTTTCCCGGTAATCCGTATTTGTC (site CCAATATCTGA) = Yes

Now examine the next entry.
Task item: Can ATCCTGGCATGGACCGGTTTTCCCGGTAATCCGTATTTGAA (site ATCCTGGCTTT) be said to have recombinant UMI read abundance (log10) at or above 0.01?
Reply: Yes

====

# assay: recombinant UMI read abundance after kanamycin selection (control-corrected) (log10(CPM+1)); higher = more efficient recombination; extreme values may be limits of the assay; sequences stand for … in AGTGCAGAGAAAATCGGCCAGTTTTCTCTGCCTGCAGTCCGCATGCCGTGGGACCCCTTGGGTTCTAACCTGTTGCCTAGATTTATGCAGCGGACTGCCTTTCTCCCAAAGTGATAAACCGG…AGGTTGGTTTCACT; site = the 11-nt donor
attribute_measured: recombinant UMI read abundance (log10)
// response body must contain only the number

Task item: // query recombinant UMI read abundance (log10) value for entry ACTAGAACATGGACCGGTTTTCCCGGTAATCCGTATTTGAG (site ACTAGAACTCC)
Reply: 0.0223

Task item: If you can, please state the reported recombinant UMI read abundance (log10) value of AGAGTGGCATGGACCGGTTTTCCCGGTAATCCGTATTTGGT (site CGAGTGGCTAC) .
Reply: 0.973

Task item: Entry TAACTAGCATGGACCGGTTTTCCCGGTAATCCGTATTTGAA (site TACCTAGCTTT) : reported recombinant UMI read abundance (log10) = ?
Reply: 0.34

Task item: For the sequence shown here, CGTTAGACATGGACCGGTTTTCCCGGTAATCCGTATTTGAA (site CGTTAGACTCT) , give the reported recombinant UMI read abundance (log10).
Reply: 0.00762
